testTarget: 5-hydroxytryptamine receptor 1D (Homo sapiens)
experimentalSetup: Compound concentration 10 µM
Description: PDSP Primary Binding target: HTR1D - Compounds are tested at 10 uM concentration, plate are incubated at room temperature in the dark for 90 minutes. Reaction are stopped by vacuum filtration onto 0.3% polyethyleneimine soaked filter mats using Filtermate harvester. Scintilation cocktail is then melted onto microwave-dried filters on a hot plate and the radio activity is counted in Microbia counter.
measure: inhibition (%)

molecule=N#Cc1ccc(NC(=O)Nc2ccccc2Br)c2nn[nH]c12 testtarget="5-hydroxytryptamine receptor 1D (Homo sapiens)" measure=inhibition testvalue=1.14
molecule=Cc1nc(-c2ccc(C(F)(F)F)cc2)sc1COc1ccc([C@H](CC(=O)O)c2ccon2)cc1 testtarget="5-hydroxytryptamine receptor 1D (Homo sapiens)" measure=inhibition testvalue=8.11
molecule=N#Cc1c[nH]c2c(C(=O)N3CCN(CCc4ccc(F)cc4)CC3)cccc12 testtarget="5-hydroxytryptamine receptor 1D (Homo sapiens)" measure=inhibition testvalue=61.7
molecule=COc1cc2c(CCNC(C)=O)c[nH]c2cc1Cl testtarget="5-hydroxytryptamine receptor 1D (Homo sapiens)" measure=inhibition testvalue=45.4
molecule=NCCc1c[nH]c2ccc(C(N)=O)cc12 testtarget="5-hydroxytryptamine receptor 1D (Homo sapiens)" measure=inhibition testvalue=98.3
molecule=COc1ccc(CNC(=O)c2cc(-c3cncc(Cl)c3)cnc2-c2ccccn2)nc1OC testtarget="5-hydroxytryptamine receptor 1D (Homo sapiens)" measure=inhibition testvalue=-5.62
molecule=CCCCc1nc(Cl)c(CO)n1Cc1ccc(-c2ccccc2-c2nnn[nH]2)cc1 testtarget="5-hydroxytryptamine receptor 1D (Homo sapiens)" measure=inhibition testvalue=43.4
molecule=CCCn1c(=O)c2[nH]c(-c3cnn(Cc4cccc(C(F)(F)F)c4)c3)nc2n(CC)c1=O testtarget="5-hydroxytryptamine receptor 1D (Homo sapiens)" measure=inhibition testvalue=10.2
molecule=Clc1cccc(Cl)c1NC1=NCCN1 testtarget="5-hydroxytryptamine receptor 1D (Homo sapiens)" measure=inhibition testvalue=29.5
molecule=O=C(O)Cn1c(C(=O)Nc2nc(-c3ccccc3Cl)cs2)cc2ccccc21 testtarget="5-hydroxytryptamine receptor 1D (Homo sapiens)" measure=inhibition testvalue=38.3
molecule="COc1ccc(C2(O)OC(=O)C(c3ccc4c(c3)OCO4)=C2Cc2cc(OC)c(OC)c(OC)c2)cc1 (centres undefined)" testtarget="5-hydroxytryptamine receptor 1D (Homo sapiens)" measure=inhibition testvalue=21.7
molecule=CCC(=O)NCC[C@@H]1CCc2ccc3c(c21)CCO3 testtarget="5-hydroxytryptamine receptor 1D (Homo sapiens)" measure=inhibition testvalue=6.75
molecule=CS(=O)(=O)NC[C@H]1CC[C@H](Nc2nc3c(s2)CCSc2ccccc2-3)CC1 testtarget="5-hydroxytryptamine receptor 1D (Homo sapiens)" measure=inhibition testvalue=50.8
molecule=CCc1ccc(OCc2ccccc2C(=O)Nc2ccc3nc(C)cc(N)c3c2)cc1 testtarget="5-hydroxytryptamine receptor 1D (Homo sapiens)" measure=inhibition testvalue=59.3
molecule=CCCn1c(=O)c2nc(C34CC5CC(CC3C5)C4)[nH]c2n(CCC)c1=O testtarget="5-hydroxytryptamine receptor 1D (Homo sapiens)" measure=inhibition testvalue=23.4
molecule=OC[C@H]1O[C@@H](n2cnc3c(NC4CCCC4)ncnc32)[C@H](O)[C@@H]1O testtarget="5-hydroxytryptamine receptor 1D (Homo sapiens)" measure=inhibition testvalue=24.7
molecule=CCCCN(CC)c1nc(C)nc2c1c(C)cn2-c1c(C)cc(C)cc1C testtarget="5-hydroxytryptamine receptor 1D (Homo sapiens)" measure=inhibition testvalue=-0.49
molecule=CCc1nn(CCCN2CCN(c3cccc(Cl)c3)CC2)c(=O)n1CCOc1ccccc1 testtarget="5-hydroxytryptamine receptor 1D (Homo sapiens)" measure=inhibition testvalue=100
molecule=Cc1cc(C)c(N)c(C#Cc2cccc(F)c2)n1 testtarget="5-hydroxytryptamine receptor 1D (Homo sapiens)" measure=inhibition testvalue=18.3
molecule=Cc1nc(C#Cc2ccnc(Cl)c2)c(C)n1-c1ccc(OC(F)(F)F)cc1 testtarget="5-hydroxytryptamine receptor 1D (Homo sapiens)" measure=inhibition testvalue=48.9
molecule=N#Cc1c(O)nc(SCc2cccc(F)c2F)nc1C1CC1 testtarget="5-hydroxytryptamine receptor 1D (Homo sapiens)" measure=inhibition testvalue=38.9
molecule=C[N+]1(C)[C@@H]2C[C@@H](OC(=O)C(O)(c3cccs3)c3cccs3)C[C@H]1[C@@H]1O[C@@H]12 testtarget="5-hydroxytryptamine receptor 1D (Homo sapiens)" measure=inhibition testvalue=32.9
molecule=C=CCN1C[C@H](C)N([C@H](c2ccc(C(=O)N(CC)CC)cc2)c2cccc(O)c2)C[C@H]1C testtarget="5-hydroxytryptamine receptor 1D (Homo sapiens)" measure=inhibition testvalue=31.4
molecule=CN1CCC(C(=O)c2cccc(NC(=O)c3c(F)cc(F)cc3F)n2)CC1 testtarget="5-hydroxytryptamine receptor 1D (Homo sapiens)" measure=inhibition testvalue=80.7
